Assignment: determine reported TGI for the given compounds.
System: OVCAR-3 ovarian
Measurement Description: NCI tumour cell line growth inhibition, 48 h

Determine from records and report TGI for "COc1ccc(C(=O)/C=C/c2cc(-c3ccc4c(c3)OCO4)n[nH]2)cc1OC"
4.61 µM

Determine from records and report TGI for NC(CCc1ncc(-c2ccccc2)s1)C(=O)O (stereo unspecified)
> 100 µM

Determine from records and report TGI for "C[N+](C)(C)CC(=O)N/N=C(/Cc1nc2ccc([N+](=O)[O-])cc2[nH]c1=O)C(=O)Nc1cc(C(F)(F)F)ccc1Cl"
> 100 µM

Determine from records and report TGI for "CCOC(=O)C(=O)Nc1ccccc1OCC"
> 100 µM

Determine from records and report TGI for "O=C(Cc1csc2nc(-c3ccc(Br)cc3)cn12)N/N=C/c1ccc(Cl)cc1Cl"
> 100 µM

Determine from records and report TGI for C[N+](C)(C)CC(CC(=O)[O-])C1CC1 (stereo unspecified)
> 100 µM

Determine from records and report TGI for "O=C(CSCC(=O)N/N=C\c1ccccc1F)N/N=C\c1ccccc1F"
> 100 µM

Determine from records and report TGI for "O=C(c1ccco1)c1nc2cc(C(F)(F)F)ccc2[n+]([O-])c1C(F)(F)F"
> 100 µM

Determine from records and report TGI for "O=C1CCCC(O)=C1SC1=C(O)CCCC1=O"
> 100 µM

Determine from records and report TGI for "O=C1CCSC(=S)N1c1ccc(Br)c(Cl)c1"
> 100 µM

Determine from records and report TGI for "C=C(C)[C@@H]1CC[C@]2(C(=O)O)CC[C@]3(C)[C@H](CC[C@@H]4[C@@]5(C)C/C(=C/c6cccc(I)c6)C(=O)C(C)(C)[C@@H]5CC[C@]43C)[C@@H]12"
3.7 µM

Determine from records and report TGI for "C[C@@]12C[C@@H](c3ccccc3O1)N1Cc3ccccc3CSC1=N2"
> 100 µM

Determine from records and report TGI for COc1ccc(C2C(C#N)=C(S)N(C3OC(CO)C(O)C(O)C3O)C(C)=C2C(C)=O)cc1 (stereo unspecified)
> 100 µM

Determine from records and report TGI for O=C1c2cc3c(cc2CC1Cc1ccc2c(c1)CCC2)CCC3 (stereo unspecified)
> 100 µM

Determine from records and report TGI for "S=C(N/N=C(\C(=N/NC(=S)N1CCCCC1)c1ccccn1)c1ccccn1)N1CCCCC1"
> 100 µM

Determine from records and report TGI for "O=C1c2cccc3c(Cl)ccc(c23)C(=O)N1CCCN1CCN(CCCN2C(=O)c3cccc4c(Cl)ccc(c34)C2=O)CC1"
> 100 µM

Determine from records and report TGI for "COc1cc2cnc(-c3ccccc3)cc2cc1OC"
85.6 µM

Determine from records and report TGI for O=NN1C(c2ccccc2)CCCC1c1ccccc1 (stereo unspecified)
> 100 µM

Determine from records and report TGI for "CCOC(=O)Cn1c(-c2nonc2NC(=O)c2ccccc2F)nc2ccccc21"
> 100 µM

Determine from records and report TGI for "COc1cc([C@@H]2c3cc4c(cc3[C@@H](c3c(O)cc(O)c5c3O[C@H](c3ccc(O)c(O)c3)[C@H](OC(=O)c3cc(O)c(O)c(O)c3)C5)[C@H]3COC(=O)[C@H]23)OCO4)cc(OC)c1O"
> 100 µM

Determine from records and report TGI for "CNc1ccc([N+](=O)[O-])c2c(NCCCN(C)C)ccnc12"
> 100 µM

Determine from records and report TGI for "CCOC(=O)c1ccc(N(C=O)CCC(=O)CCl)cc1"
1.35 µM

Determine from records and report TGI for "O=C(Oc1ccccc1Cl)c1ccccc1Nc1cccc(C(F)(F)F)c1"
32.9 µM

Determine from records and report TGI for O=C1CCC2(c3ccc(Cl)cc3)Nc3ncncc3N12 (stereo unspecified)
> 10 µM

Determine from records and report TGI for "Cc1cccc(C(C)C)c1NC(=O)CCl"
59.9 µM

Determine from records and report TGI for "CN(C)CCNC(=O)c1c2ccccc2cc2ccccc12"
> 100 µM

###

Assignment: determine reported TGI for the given compounds.
System: HS 578T breast
Measurement Description: NCI tumour cell line growth inhibition, 48 h
Write the number in µM without appending the unit.

Determine from records and report TGI for "O=c1c2c(=NCCN3CCCC3)cc3c(=O)n(CCCN4CCOCC4)c(=O)c4ccc(c(O)n1CCCN1CCOCC1)c2c4-3"
5.24

Determine from records and report TGI for "COc1cc(-c2nc3cc(Cl)c(Cl)cc3[nH]2)ccc1OCC(=O)N=Nc1c(O)[nH]c2ccc(Cl)cc12"
3.71

Determine from records and report TGI for CC(=O)OCC1OC(n2c(N)c(C#N)c(-c3cccc(Cl)c3)c(C#N)c2=S)C(OC(C)=O)C(OC(C)=O)C1OC(C)=O (stereo not given)
91.5

Determine from records and report TGI for "O=C1/C(=C/c2ccc(Cl)cc2)CN(C(=O)CCN2CCC(=NO)CC2)C/C1=C\c1ccc(Cl)cc1"
6.43

Determine from records and report TGI for "CCOC(=O)c1ccc(N(C=O)CCC(=O)CCl)cc1"
2.89

###

Test system: M14 melanoma
Measurement Description: NCI tumour cell line growth inhibition, 48 h
Assignment: determine reported TGI for the given molecules.

Determine from records and report TGI for "O=C(Nc1ccc(Oc2ccc(NC(=O)Nc3ccc([N+](=O)[O-])cc3)cc2)cc1)Nc1ccc([N+](=O)[O-])cc1"
11.7 µM

Determine from records and report TGI for "CCCC(=O)c1ccc(=O)n(C)c1"
> 100 µM

Determine from records and report TGI for COc1ccc(C2C(C#N)=C(S)N(C3OC(CO)C(O)C(O)C3O)C(C)=C2C(C)=O)cc1 (centres undefined)
> 100 µM

Determine from records and report TGI for COC12C=CC(CC1)C(C)(C)C2OS(C)(=O)=O (centres undefined)
> 100 µM

Determine from records and report TGI for CN1C(=O)CCC1c1ccc2c(c1)oc(=O)n2C (centres undefined)
> 100 µM

Determine from records and report TGI for "O=C(/C=C/c1ccccc1O)c1cccc2ccccc12"
> 100 µM

Determine from records and report TGI for COc1ccc(OC(C)C(=O)O)c2c1CCCC2=O (centres undefined)
> 100 µM

Determine from records and report TGI for "O=C1CCCCN1C(=O)c1ccc([N+](=O)[O-])cc1"
> 100 µM

Determine from records and report TGI for CC(=O)O[C@H]1C[C@](C)(O)[C@@]23CC([C@@H](OC(=O)C(C)(C)O)[C@@H](OC(C)=O)C2(COC(=O)c2ccccc2)[C@H]1OC(C)=O)C(C)(C)O3 (some centres undefined)
> 100 µM

###

Assignment: determine reported TGI for the given compounds.
Tested on: MOLT-4 leukemia
Measurement Description: NCI tumour cell line growth inhibition, 48 h

Determine from records and report TGI for CCOC1NC(/N=C/c2ccc(OC)cc2)=C(C#N)C1C#N (stereo unspecified)
> 100 µM

Determine from records and report TGI for CC1CCOc2ccc(cc2)C=Nc2ccc(cc2)-c2ccc(cc2)N=Cc2ccc(cc2)OCC1 (stereo unspecified)
> 100 µM

Determine from records and report TGI for "O=Cc1c(Br)[nH]c2ccccc12"
> 72.6 µM

Determine from records and report TGI for CCCCCCCCNC(C)C(O)c1ccc(SC(C)C)cc1 (stereo unspecified)
5.27 µM

Determine from records and report TGI for "Cc1ccc(/C=C/C(=O)c2ccc([N+](=O)[O-])cc2)cc1"
> 100 µM

Determine from records and report TGI for "CCOC(=O)Cn1c(-c2nonc2NC(=O)c2ccccc2F)nc2ccccc21"
> 100 µM

Determine from records and report TGI for "O=C1/C(=C/c2ccc(Cl)c(Cl)c2)CNC/C1=C\c1ccc(Cl)c(Cl)c1"
28.3 µM

Determine from records and report TGI for CC(=O)O[C@H]1C[C@](C)(O)[C@@]23CC([C@@H](OC(=O)C(C)(C)O)[C@@H](OC(C)=O)C2(COC(=O)c2ccccc2)[C@H]1OC(C)=O)C(C)(C)O3 (stereo partly specified)
> 100 µM

Determine from records and report TGI for "Nc1nccc2c1ccn2-c1cccc(NC(=O)c2ccc(N3CCOCC3)c(C(F)(F)F)c2)c1"
> 22.8 µM

Determine from records and report TGI for COC1C(CO)OC(n2c3c(Cl)cccc3c3c4c(c5c6cccc(Cl)c6[nH]c5c32)C(=O)NC4=O)C(O)C1O (stereo unspecified)
> 100 µM

Determine from records and report TGI for "Cn1nc2ccc3nccc(NCCNCCO)c3c2n1"
69 µM

###

System: NCI-H460 lung
Measurement Description: NCI tumour cell line growth inhibition, 48 h
Experimental Endpoint: TGI (µM)
Write the number in µM without appending the unit.

Determine from records and report TGI for "O=c1c2c(=NCCN3CCCC3)cc3c(=O)n(CCCN4CCOCC4)c(=O)c4ccc(c(O)n1CCCN1CCOCC1)c2c4-3"
1.08

Determine from records and report TGI for CCCCCCCCNC(C)C(O)c1ccc(SC(C)C)cc1 (centres undefined)
3.56

Determine from records and report TGI for "Cc1ccc(-c2cc(-c3ccc(C)cc3)nc(N3CCN(CCNc4ccnc5cc(Cl)ccc45)CC3)n2)cc1"
9.2

Determine from records and report TGI for CCN(CC)C1Oc2cc3c(cc2C(c2cccc(OC)c2O)C1C)OCO3 (centres undefined)
21.9

Determine from records and report TGI for "C=C(C)[C@@H]1CC[C@]2(C(=O)O)CC[C@]3(C)[C@H](CC[C@@H]4[C@@]5(C)C/C(=C/c6cccc(I)c6)C(=O)C(C)(C)[C@@H]5CC[C@]43C)[C@@H]12"
4.27

Just for reference, PubChem BioAssay (NCI) is where these values come from.
